System: M14 melanoma
Experiment: NCI-60 one-dose screen, 48 h (100 = growth as untreated, 0 = no growth, -100 = all killed)
Conditions: 10 µM unless noted
About 83,000 compounds went through this panel and 20% of them were active in at least one assay; those are over-represented in the sample as a whole.

[
  {
    "SMILES_TEXT": "CNCCOc1nc2c3cnccc3cc(-c3cc(OC)c(OC)c(OC)c3)c2c2ccncc12",
    "growth, %": -67.8
  },
  {
    "SMILES_TEXT": "COc1cc(/C=N/O)nc(-c2ccccn2)c1",
    "growth, %": 6.86
  },
  {
    "SMILES_TEXT": "COc1ccc2c(c1)oc1c(C)c3c(c(C)c12)C(=O)N(N)C3=O",
    "growth, %": 13.9
  },
  {
    "SMILES_TEXT": "NC(=O)CSSCC(N)=O",
    "growth, %": 93.2
  },
  {
    "SMILES_TEXT": "C[C@H]1[C@H](C)CC[C@]2(C(=O)NCC#CCN3CCN(C)CC3)CC[C@]3(C)C(=CC[C@@H]4[C@@]5(C)Cc6c([nH]c7ccccc67)C(C)(C)[C@@H]5CC[C@]43C)[C@H]12",
    "growth, %": 71.3
  },
  {
    "SMILES_TEXT": "Cc1ncc(C(=O)Nc2ccc(CN3CCN(C)CC3)c(C(F)(F)F)c2)cc1C#Cc1cnc(N)cc1C#N",
    "growth, %": -75.1
  },
  {
    "SMILES_TEXT": "CCNC(=O)Oc1ccc(/C(=C(\\C)c2ccccc2)c2ccc(OCCN(CC)CC)cc2)cc1",
    "growth, %": 39.7
  },
  {
    "SMILES_TEXT": "CCCCCN1C=C/C(=C\\C(=O)N(C)c2ccc(OC(F)(F)F)cc2)c2ccccc21",
    "growth, %": 102
  },
  {
    "SMILES_TEXT": "O=C1CC(=O)OC(c2ccc([N+](=O)[O-])cc2)O1",
    "growth, %": -64.4
  },
  {
    "SMILES_TEXT": "CCC(CC)NCC(C)(C)O",
    "growth, %": 97
  }
]

----------
The entries below are paired with their reported growth.
Tested on: OVCAR-3 ovarian
Test: NCI-60 one-dose screen, 48 h (100 = growth as untreated, 0 = no growth, -100 = all killed)
Conditions: 10 µM unless noted
The panel holds about 83,000 compounds, 20% with a hit somewhere; the sample as a whole holds those more often.

[
  {
    "MOLECULE": "O=C(c1nnc(Nc2ccccc2Br)o1)c1c[nH]c2ccccc12",
    "growth [%]": 97.2
  },
  {
    "MOLECULE": "O=S(=O)(NCCCNc1nccc(-c2c(-c3cccc(F)c3)nc3sccn23)n1)c1cccc2ccccc12",
    "growth [%]": 68.7
  },
  {
    "MOLECULE": "Cc1nc2sccn2c1-c1cn2ccsc2n1",
    "growth [%]": 85.8
  },
  {
    "MOLECULE": "CCCCC/C=C/C(C)=C/C1CC(C)C/C=C/CCC(O)C(OC(N)=O)CCC(C)CC(O)C(C)C(=O)O1 (stereo unspecified)",
    "growth [%]": 129
  },
  {
    "MOLECULE": "O=C1OC(Cc2ccccc2)C1c1ccccc1 (stereo unspecified)",
    "growth [%]": 110
  },
  {
    "MOLECULE": "O=C(Cn1c[n+](CC(=O)c2ccc([N+](=O)[O-])cc2)c2ccccc21)Nc1cccc2cccnc12",
    "growth [%]": 38.6
  },
  {
    "MOLECULE": "COc1ccc(/C=C2\\Oc3cc(OCCCCCN4CCCCC4)ccc3C2=O)cc1OC",
    "growth [%]": 82.8
  },
  {
    "MOLECULE": "Cc1c(C(=O)NCCC(=O)NO)sc2ncnc(Nc3ccc(F)c(Cl)c3)c12",
    "growth [%]": 107
  },
  {
    "MOLECULE": "COC(=O)c1ccc2c(c1)[n+](=O)c(C(C)=O)c(C(F)(F)F)n2[O-]",
    "growth [%]": -92.8
  },
  {
    "MOLECULE": "Cc1nn(-c2ccccc2)c(Cl)c1/C=N\\N=c1/sc2ccccc2n1C",
    "growth [%]": 111
  },
  {
    "MOLECULE": "COc1cc2cc(CN3CCN(c4nccc(-c5ccc6ccccc6c5)n4)CC3)c(=O)[nH]c2cc1OC",
    "growth [%]": 39
  },
  {
    "MOLECULE": "c1ccc(Cn2cnc3ccc(-c4nc(-c5ccc6c(c5)ncn6C5CCCCC5)cn5ccnc45)cc32)cc1",
    "growth [%]": -35.7
  },
  {
    "MOLECULE": "Cn1ccc2c1CC1CN(Cc3ccco3)C(=O)C1C2C(=O)O (stereo unspecified)",
    "growth [%]": 103
  },
  {
    "MOLECULE": "COC1=CC(=O)c2ccccc2C1=O",
    "growth [%]": 24.5
  },
  {
    "MOLECULE": "COc1c(Cl)c2c(c(OC)c1OC)-c1ccc(SC)c(=O)cc1[C@@H](NC(=O)OCC(F)(F)F)CC2",
    "growth [%]": -14.2
  },
  {
    "MOLECULE": "COc1cc2nc(-c3ccc(Cl)cc3)cc(OCCCN3CCOCC3)c2cc1OC",
    "growth [%]": 77.8
  },
  {
    "MOLECULE": "CCOC(=O)Oc1c(OC)cc(C(=O)c2ccc(OC)c(OC(=O)CCl)c2OC)cc1OC",
    "growth [%]": -18.4
  },
  {
    "MOLECULE": "NS(=O)(=O)c1ccc(CCN2C(=O)C=CC2=O)cc1",
    "growth [%]": 106
  },
  {
    "MOLECULE": "COc1ccc2c(c1)C(=O)CC(c1ccccc1OC)O2 (stereo unspecified)",
    "growth [%]": 117
  },
  {
    "MOLECULE": "CCN1C(=O)N(CC)C2Nn3c(s/c(=C\\c4ccc(OC)cc4)c3=O)=NC21 (stereo unspecified)",
    "growth [%]": 19.2
  },
  {
    "MOLECULE": "CCOC(=O)c1ccc2c(c1)ncn2-c1ccc(NC(=O)Nc2cccc(C)c2)cc1",
    "growth [%]": 96.9
  }
]

----------
System: CAKI-1 renal
Experiment: NCI-60 one-dose screen, 48 h
Settings: 10 µM unless noted
Compounds without any hit were thinned out: in the full panel of roughly 83,000, 20% have a hit. The source made the active and inactive calls. The calls were made as follows: active = growth percent below 10; inactive = the rest.
Labels: class 1 for active, class 0 for inactive

[
  {
    "COMPOUND": "CCN1C(=O)N(CC)C2Nn3c(s/c(=C\\c4ccc(OC)cc4)c3=O)=NC21 (centres undefined)",
    "CLASS": "class 0"
  },
  {
    "COMPOUND": "CCOC(=O)c1nc2c3ccccc3ccn2c1C(=O)OCC",
    "CLASS": "class 0"
  },
  {
    "COMPOUND": "O=S(=O)(NCCCNc1nccc(-c2c(-c3cccc(O)c3)nc3occn23)n1)c1ccc(Cl)cc1",
    "CLASS": "class 0"
  },
  {
    "COMPOUND": "O=C(Nc1ccccc1)Nc1ccc2cc3ccc(NC(=O)Nc4ccccc4)cc3nc2c1",
    "CLASS": "class 0"
  },
  {
    "COMPOUND": "Cc1ccc(-c2nc3ccccn3c2/C=C2/C(=O)Nc3cc(Cl)ccc32)cc1",
    "CLASS": "class 0"
  },
  {
    "COMPOUND": "Cc1nc(N)nc(N[C@@H](C)c2nc3cccc(NCc4ccc(C(=O)NO)cc4)c3c(=O)n2-c2ccccc2)n1",
    "CLASS": "class 0"
  },
  {
    "COMPOUND": "O=C1c2ccc3c4c(ccc(c24)C(=O)N1CCCNCc1ccccc1Cl)C(=O)N(CCCNCc1ccccc1Cl)C3=O",
    "CLASS": "class 1"
  },
  {
    "COMPOUND": "Cc1ccccc1NS(=O)(=O)c1cccc(C(=O)Nc2ccc(Br)cc2)c1",
    "CLASS": "class 0"
  },
  {
    "COMPOUND": "O=C1c2ccc3c4c(ccc(c24)C(=O)N1CCCNCc1ccccc1F)C(=O)N(CCCNCc1ccccc1F)C3=O",
    "CLASS": "class 1"
  },
  {
    "COMPOUND": "COc1cc2c(=O)n(CCCN(C)C)c3c4cc5c(cc4ccc3c2cc1OC)OCO5",
    "CLASS": "class 0"
  },
  {
    "COMPOUND": "O=C1/C=C/[C@@H](O)[C@@H]2C[C@@H](O)C[C@H]2/C=C/CCC[C@H](CCc2cccc3ccccc23)O1",
    "CLASS": "class 1"
  },
  {
    "COMPOUND": "O=C(CSc1nc2ccccc2[nH]1)NCc1ccccc1",
    "CLASS": "class 0"
  },
  {
    "COMPOUND": "COc1ccc(C(=O)c2cc(OC)c(OC)c(OC)c2)cc1O",
    "CLASS": "class 0"
  },
  {
    "COMPOUND": "N#CC1=C(N)Oc2c(ccc3ccccc23)C1c1ccccc1Cl (centres undefined)",
    "CLASS": "class 0"
  },
  {
    "COMPOUND": "Cc1nc2sccn2c1-c1nc2sccn2c1/C=C1/C(=O)Nc2ccccc21",
    "CLASS": "class 1"
  },
  {
    "COMPOUND": "COc1ccc(-c2nc([C@@H](C)Sc3nc(N)cc(N)n3)c(C)s2)cc1OCCN1CCOCC1",
    "CLASS": "class 0"
  },
  {
    "COMPOUND": "CCOC(=O)C1=C(C)NC(SCc2cc(=O)oc3ccc(F)cc23)=N[C@@H]1c1cccc2ccccc12",
    "CLASS": "class 0"
  },
  {
    "COMPOUND": "CCOC(=O)c1cc(C(=O)c2ccc(OC)c(OC)c2)n2ccc(/C=C/c3cc[n+](CC(=O)c4ccc(OC)c(OC)c4)cc3)cc12",
    "CLASS": "class 0"
  },
  {
    "COMPOUND": "C=C1C(=O)O[C@H]2[C@H]1CC/C(COC(=O)NCc1c[nH]c3ccc(Br)cc13)=C\\CC[C@@]1(C)O[C@@H]21",
    "CLASS": "class 1"
  }
]
